What pIC50 was measured for each of the following?
System: SUDHL10
assay_overview: Induction of cytotoxicity (Assay 6), SUDHL10
run_conditions: Homo sapiens, SU-DHL10, 5 h, read-out: Cytotox SUDHL10 IC50 (median), SUDHL10 cells, 5 hours, CellTiter-Glo
Field pIC50 (float): negative decimal logarithm of the concentration in molar.

Prompt: GET pIC50 | system: SUDHL10 | item: CCc1nn(C)c2c1-c1c(Cl)ccc3c(CCCOc4cccc5cc(F)ccc45)c(C(=O)O)n(c13)CCCCN(C)C2 (racemic) [Example 39]
Response: 6.39

Prompt: Param request: pIC50 | system SUDHL10 | item Cc1nn(C)c2c1-c1c(Cl)ccc3c(CCCOc4cccc5ccccc45)c(C(=O)O)n(c13)CCCCOC2 (racemic) [Example 2]
Response: 5.52

Prompt: Send back SUDHL10 pIC50 of Cc1c2c(nn1C)N(C)CCCCCn1c(C(=O)O)c(CCCOc3cccc4ccccc34)c3ccc(Cl)c-2c31 (racemic) [Example 71] only.
Response: 5.57
